Values compiled from paper PMC5365654.

biological target: BcII (Bacillus cereus); assay: FC5 fluorogenic metallo-β-lactamase inhibition assay, BcII; type: biochemical; details: pH 7.5; preincubation 0 min; FC5 substrate; read-out: IC50, μM (mean ± SD) for BcII, pH 7.5
Sequence (P04190 31-257): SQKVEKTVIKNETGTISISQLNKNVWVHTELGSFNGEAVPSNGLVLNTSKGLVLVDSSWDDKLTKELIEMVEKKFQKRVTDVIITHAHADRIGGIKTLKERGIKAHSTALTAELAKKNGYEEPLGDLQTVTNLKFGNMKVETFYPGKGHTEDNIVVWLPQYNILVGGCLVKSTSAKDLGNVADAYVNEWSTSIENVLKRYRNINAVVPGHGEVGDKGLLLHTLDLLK
MEASURED PROPERTY: IC50 (µM)
Just the number please, in µM, no unit attached.

In: Requested read-out: IC50. Entry: O=C(O)C(S)c1ccccc1 (racemic) [(±)-Thiomandelic acid, thiomandelic acid]
Out: 0.3

----------
Target: CTX-M-15 (Escherichia coli, UniProt Q9EXV5)
Construct: hexahistidine (pOPINF, 3C-cleavable) (N, cleaved yes); made in house; host or cells: E. coli BL21(DE3)
Sequence (Q9EXV5 entry or part of it): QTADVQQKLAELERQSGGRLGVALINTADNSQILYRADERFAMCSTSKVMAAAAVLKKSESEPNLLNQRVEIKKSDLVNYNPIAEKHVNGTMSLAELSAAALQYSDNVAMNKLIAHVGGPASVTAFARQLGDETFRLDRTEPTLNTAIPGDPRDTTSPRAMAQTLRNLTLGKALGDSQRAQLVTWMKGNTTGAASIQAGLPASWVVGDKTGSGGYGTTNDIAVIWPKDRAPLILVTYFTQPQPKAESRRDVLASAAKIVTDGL
Test: FC5 fluorogenic β-lactamase inhibition assay, CTX-M-15
Type: biochemical
Conditions: preincubation 60 min; FC5 substrate; read-out: IC50, nM (mean ± SD) for CTX-M-15
Method: To investigate the extent to which cyclic boronates inhibit class C β-lactamases as well as the important class A ESBL and class D carbapenemase targets, we used a fluorogenic assay ([22]) to screen the cyclic boronates, which we have found to inhibit other β-lactamases ([21]), against them. […] Inhibition assays were carried out using FC5 as a fluorogenic reporter substrate ([22]). […] Residual enzyme activity was determined for a range of inhibitor concentrations. […]
MEASURED PROPERTY: IC50 (nM)
Just the number please, in nM, no unit attached.

In: Requested read-out: IC50. Entry: NC(=O)[C@@H]1CC[C@@H]2CN1C(=O)N2OS(=O)(=O)O [Avibactam, avibactam]
Out: 0.39

----------
Listing of recorded MIC by entry.
system: E. coli EC113, ST 131; experiment: Broth microtiter dilution MIC, EC113; format: cell-based; conditions: Escherichia coli, CTX-M-27 (A), with cyclic boronate 2 (10 mg/liter) supplementation, read-out: MIC (mg/liter) for β-lactam

CC(C)(O/N=C(\C(=O)N[C@@H]1C(=O)N2C(C(=O)[O-])=C(C[n+]3ccccc3)CS[C@H]12)c1csc(N)n1)C(=O)O [CAZ, ceftazidime] | ≤ 1 mg/L
CC1(C)S[C@@H]2[C@H](NC(=O)[C@H](N)c3ccccc3)C(=O)N2[C@H]1C(=O)O [AMP, ampicillin] | ≤ 8 mg/L
CO/N=C(\C(=O)N[C@@H]1C(=O)N2C(C(=O)[O-])=C(C[N+]3(C)CCCC3)CS[C@H]12)c1csc(N)n1 [FEP, cefepime] | ≤ 4 mg/L
CO/N=C(\C(=O)N[C@@H]1C(=O)N2C(C(=O)O)=C(CSc3nc(=O)c(=O)[nH]n3C)CS[C@H]12)c1csc(N)n1 [CRO, ceftriaxone] | < 0.5 mg/L
Cc1nnc(SCC2=C(C(=O)O)N3C(=O)[C@@H](NC(=O)Cn4cnnn4)[C@H]3SC2)s1 [FAZ, cefazolin] | 4 mg/L

In: Requested read-out: MIC. Entry: CCN1CCN(C(=O)N[C@@H](C(=O)N[C@@H]2C(=O)N3[C@@H]2SC(C)(C)[C@@H]3C(=O)O)c2ccccc2)C(=O)C1=O [PIP, piperacillin]
Out: ≤ 16 mg/L

----------
biological target: OXA-48 (Klebsiella pneumoniae); construct: hexahistidine (pOPINF, 3C-cleavable) (N, cleaved yes); made in house; host or cells: E. coli BL21(DE3); assay: FC5 fluorogenic β-lactamase inhibition assay, OXA-48; format: biochemical; details: read-out: IC50, nM (mean ± SD) for OXA-48; preincubation 10 min; FC5 substrate
Sequence (Q6XEC0 23-265 limits assumed): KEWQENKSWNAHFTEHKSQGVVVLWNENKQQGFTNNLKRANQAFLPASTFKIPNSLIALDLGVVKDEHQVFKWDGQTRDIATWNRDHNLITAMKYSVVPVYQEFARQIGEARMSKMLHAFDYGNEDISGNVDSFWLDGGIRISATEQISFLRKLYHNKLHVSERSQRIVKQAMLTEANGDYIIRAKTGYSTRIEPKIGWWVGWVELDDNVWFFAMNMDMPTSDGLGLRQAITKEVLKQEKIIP
MEASURED PROPERTY: IC50

In: Requested read-out: IC50. Entry: CC1(C)[C@H](C(=O)O)N2C(=O)C[C@H]2S1(=O)=O
Out: > 200000 nM
